- system: Gcr1 (UniProt P07261)
- Sequence: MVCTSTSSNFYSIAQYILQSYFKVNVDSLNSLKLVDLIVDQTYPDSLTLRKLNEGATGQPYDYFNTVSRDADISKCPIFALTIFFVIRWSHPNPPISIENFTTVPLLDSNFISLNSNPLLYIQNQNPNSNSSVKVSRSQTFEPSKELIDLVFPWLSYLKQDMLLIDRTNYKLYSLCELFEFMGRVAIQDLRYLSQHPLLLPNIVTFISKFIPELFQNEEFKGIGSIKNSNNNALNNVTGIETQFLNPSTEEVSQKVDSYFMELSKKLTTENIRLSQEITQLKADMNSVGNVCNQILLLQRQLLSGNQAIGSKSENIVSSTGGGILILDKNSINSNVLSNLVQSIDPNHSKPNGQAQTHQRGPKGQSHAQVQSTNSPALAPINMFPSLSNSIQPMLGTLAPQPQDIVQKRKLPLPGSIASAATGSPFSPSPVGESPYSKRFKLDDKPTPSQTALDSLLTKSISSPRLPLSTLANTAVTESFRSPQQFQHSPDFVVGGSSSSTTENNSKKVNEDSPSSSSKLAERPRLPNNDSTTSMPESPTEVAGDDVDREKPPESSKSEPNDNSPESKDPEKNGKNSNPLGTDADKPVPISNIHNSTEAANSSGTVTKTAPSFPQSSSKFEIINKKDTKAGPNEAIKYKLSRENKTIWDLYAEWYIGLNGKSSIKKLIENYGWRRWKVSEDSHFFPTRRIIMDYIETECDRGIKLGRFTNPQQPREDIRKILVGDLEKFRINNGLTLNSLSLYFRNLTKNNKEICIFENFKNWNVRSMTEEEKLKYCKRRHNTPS
- assaySummary: PBM E-score (8-mer binding enrichment) (E-score (-0.5 to 0.5)); higher = stronger / more preferred TF binding
- conditionContext: protein concentration: 100 nM; construct: GST-full length
Over roughly 33,000 sequences, “E-score (-0.5 to 0.5)” has its median near -0.011; the highest 2% begin near 0.28. Shown is part of a subset that was picked to be rich in the highest values.
readoutLabel: PBM E-score

sequenceData: ACTGGAGG
system: Gcr1 (UniProt P07261)
readoutLabel: PBM E-score
measValue: 0.206

sequenceData: AATAGGCG
system: Gcr1 (UniProt P07261)
readoutLabel: PBM E-score
measValue: 0.168

sequenceData: ACTGGATA
system: Gcr1 (UniProt P07261)
readoutLabel: PBM E-score
measValue: 0.108

sequenceData: AGGGAAGC
system: Gcr1 (UniProt P07261)
readoutLabel: PBM E-score
measValue: 0.281

sequenceData: AGACGCCA
system: Gcr1 (UniProt P07261)
readoutLabel: PBM E-score
measValue: 0.283

sequenceData: CGGGAAGC
system: Gcr1 (UniProt P07261)
readoutLabel: PBM E-score
measValue: 0.317

sequenceData: CCATCCGG
system: Gcr1 (UniProt P07261)
readoutLabel: PBM E-score
measValue: -0.0299

----------
- system: Gcr1 (UniProt P07261)
- Sequence: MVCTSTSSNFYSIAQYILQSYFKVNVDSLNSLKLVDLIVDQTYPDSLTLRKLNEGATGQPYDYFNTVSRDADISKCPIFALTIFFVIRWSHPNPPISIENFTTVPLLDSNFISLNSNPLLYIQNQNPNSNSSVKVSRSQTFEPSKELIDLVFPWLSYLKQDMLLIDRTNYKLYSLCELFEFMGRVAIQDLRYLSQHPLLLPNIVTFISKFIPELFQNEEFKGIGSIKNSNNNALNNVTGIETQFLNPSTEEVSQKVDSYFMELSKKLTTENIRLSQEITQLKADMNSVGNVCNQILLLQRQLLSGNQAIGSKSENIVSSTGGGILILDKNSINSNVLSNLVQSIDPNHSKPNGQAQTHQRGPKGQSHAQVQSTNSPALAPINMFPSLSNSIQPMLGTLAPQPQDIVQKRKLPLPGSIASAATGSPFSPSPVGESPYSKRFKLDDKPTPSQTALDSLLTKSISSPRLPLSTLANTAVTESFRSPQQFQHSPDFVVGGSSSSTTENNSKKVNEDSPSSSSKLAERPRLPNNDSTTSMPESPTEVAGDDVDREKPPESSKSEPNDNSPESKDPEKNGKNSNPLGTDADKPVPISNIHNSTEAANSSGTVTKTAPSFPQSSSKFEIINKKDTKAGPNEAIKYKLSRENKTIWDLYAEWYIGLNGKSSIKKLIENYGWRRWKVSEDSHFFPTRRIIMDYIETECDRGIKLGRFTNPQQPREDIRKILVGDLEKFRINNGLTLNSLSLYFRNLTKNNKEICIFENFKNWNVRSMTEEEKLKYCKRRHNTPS
- assaySummary: PBM E-score (8-mer binding enrichment) (E-score (-0.5 to 0.5)); higher = stronger / more preferred TF binding
- conditionContext: protein concentration: 100 nM; construct: GST-full length
The full ranking holds about 33,000 sequences; the median of “E-score (-0.5 to 0.5)” is about -0.011, and the highest 2% start at about 0.28. The sample holds the highest values, similar sequences and a random draw of the others, so the mix is not that of the screen.
The reader will find reported PBM E-score values listed item by item below.
readoutLabel: PBM E-score

sequenceData: ATATCCCA
measValue: 0.116
//
sequenceData: AATGCTAC
measValue: -0.0602
//
sequenceData: GGAATTCA
measValue: 0.192
//
sequenceData: AATGCTAA
measValue: 0.206
//
sequenceData: CCATCCCC
measValue: 0.0989
//
sequenceData: GGAATTCC
measValue: 0.426
//
sequenceData: GCATCCCA
measValue: 0.309
//
sequenceData: GGCAATGA
measValue: -0.202
//
sequenceData: TGCTCCCA
measValue: -0.0935
//
sequenceData: GGCTCCCA
measValue: 0.348
//
sequenceData: GATGCTGC
measValue: 0.276
//
sequenceData: GTATCCCA
measValue: 0.339
//
sequenceData: AGGGACCC
measValue: -0.0366
//
sequenceData: GATGCTGA
measValue: 0.312
//
sequenceData: GAATCCCC
measValue: 0.0893

----------
- system: Gcr1 (UniProt P07261)
- Sequence: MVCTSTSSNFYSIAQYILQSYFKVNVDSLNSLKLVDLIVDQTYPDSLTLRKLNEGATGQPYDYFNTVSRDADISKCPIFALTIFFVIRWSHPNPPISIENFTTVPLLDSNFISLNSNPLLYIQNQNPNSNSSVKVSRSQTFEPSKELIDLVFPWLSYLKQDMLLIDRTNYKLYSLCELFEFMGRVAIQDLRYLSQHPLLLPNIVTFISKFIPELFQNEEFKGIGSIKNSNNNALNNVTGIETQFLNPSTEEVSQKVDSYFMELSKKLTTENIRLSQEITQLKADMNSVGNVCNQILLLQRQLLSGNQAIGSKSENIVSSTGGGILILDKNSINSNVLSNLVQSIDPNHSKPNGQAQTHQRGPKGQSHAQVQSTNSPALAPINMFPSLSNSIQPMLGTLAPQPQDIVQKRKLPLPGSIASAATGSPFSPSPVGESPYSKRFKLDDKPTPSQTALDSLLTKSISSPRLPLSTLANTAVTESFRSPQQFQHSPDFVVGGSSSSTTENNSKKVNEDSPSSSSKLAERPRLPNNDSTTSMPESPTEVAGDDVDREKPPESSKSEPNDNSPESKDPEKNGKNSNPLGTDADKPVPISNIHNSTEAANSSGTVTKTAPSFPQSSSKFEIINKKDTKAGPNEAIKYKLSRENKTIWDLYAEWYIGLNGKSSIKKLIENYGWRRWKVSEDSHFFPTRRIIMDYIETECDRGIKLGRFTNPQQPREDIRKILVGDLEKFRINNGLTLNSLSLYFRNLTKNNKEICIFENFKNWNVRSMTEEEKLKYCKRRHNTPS
- assaySummary: PBM E-score (8-mer binding enrichment) (E-score (-0.5 to 0.5)); higher = stronger / more preferred TF binding
- conditionContext: protein concentration: 100 nM; construct: GST-full length
In all, about 33,000 sequences were measured (“E-score (-0.5 to 0.5)”: median about -0.011, highest 2% from about 0.28 on). The sample as a whole holds a higher share of the highest values than the screen did.
Each entry below carries its reported PBM E-score.
readoutLabel: PBM E-score

sequenceData: AGACATTA
measValue: -0.0316
--
sequenceData: ATATGCAT
measValue: -0.0625
--
sequenceData: ATGGCTTC
measValue: 0.3
--
sequenceData: CGCCATTC
measValue: 0.0469

----------
- system: Gcr1 (UniProt P07261)
- Sequence: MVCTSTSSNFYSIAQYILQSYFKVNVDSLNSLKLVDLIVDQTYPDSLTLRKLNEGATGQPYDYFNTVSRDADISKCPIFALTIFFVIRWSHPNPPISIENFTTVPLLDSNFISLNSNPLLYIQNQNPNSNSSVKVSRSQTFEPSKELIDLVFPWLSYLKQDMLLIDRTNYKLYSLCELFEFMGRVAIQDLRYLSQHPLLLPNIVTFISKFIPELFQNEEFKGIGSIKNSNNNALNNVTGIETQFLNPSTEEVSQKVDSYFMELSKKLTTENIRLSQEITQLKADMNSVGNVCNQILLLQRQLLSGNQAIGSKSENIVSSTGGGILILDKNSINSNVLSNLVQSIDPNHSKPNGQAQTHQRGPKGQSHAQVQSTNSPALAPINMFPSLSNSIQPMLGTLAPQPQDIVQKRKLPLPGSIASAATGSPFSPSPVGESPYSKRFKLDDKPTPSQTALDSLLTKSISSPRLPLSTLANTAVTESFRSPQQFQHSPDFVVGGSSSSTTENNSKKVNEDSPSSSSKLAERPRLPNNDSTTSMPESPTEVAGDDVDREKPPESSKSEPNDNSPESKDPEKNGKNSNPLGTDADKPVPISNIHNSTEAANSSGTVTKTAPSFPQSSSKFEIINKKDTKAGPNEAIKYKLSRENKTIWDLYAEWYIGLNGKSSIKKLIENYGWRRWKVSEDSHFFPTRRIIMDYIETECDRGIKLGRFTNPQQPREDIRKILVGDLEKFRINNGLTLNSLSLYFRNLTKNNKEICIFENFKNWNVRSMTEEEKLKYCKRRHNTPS
- assaySummary: PBM E-score (8-mer binding enrichment) (E-score (-0.5 to 0.5)); higher = stronger / more preferred TF binding
- conditionContext: protein concentration: 100 nM; construct: GST-full length
Whole data set: some 33,000 sequences, median “E-score (-0.5 to 0.5)” near -0.011, cut for the highest 2% near 0.28. Shown is part of a subset that was picked to be rich in the highest values.

sequenceData: ACGCTTGA
PBM E-score: 0.0746
--
sequenceData: CCTAGGTC
PBM E-score: -0.17
--
sequenceData: AGATACCA
PBM E-score: 0.246
--
sequenceData: GATTAGGC
PBM E-score: -0.0727
--
sequenceData: GGATTCAC
PBM E-score: 0.159
--
sequenceData: CGAGCCCA
PBM E-score: -0.119
--
sequenceData: GACCATCC
PBM E-score: -0.0793
--
sequenceData: CACAAGAA
PBM E-score: 0.275
--
sequenceData: CGAGCCAA
PBM E-score: -0.00353
--
sequenceData: ACTATTGC
PBM E-score: 0.0299
--
sequenceData: CATCAACA
PBM E-score: 0.015
--
sequenceData: AAGAAGAT
PBM E-score: 0.338
--
sequenceData: ACACAAAA
PBM E-score: 0.141
